Here the recorded DPPH Inhibition (%), Mean ± SD is given for each entry.
- protocol details: DPPH radical scavenging activity
- measurement setup: at 5 µM
Respond with the bare value in %.

Look over these answered cases.
stdin: Which DPPH Inhibition (%), Mean ± SD value belongs to O=C1O[C@H]([C@@H](O)CO)C(O)=C1O [Ascorbic acid, ascorbic acid, reference compound] ?
stdout: 18.72

stdin: Item: "O=c1cc(-c2ccc(O)c(O)c2)oc2cc(O)cc(O)c12"
stdout: 76.65

Further cases:
stdin: Need DPPH Inhibition (%), Mean ± SD of O=c1cc(-c2ccc(O)c(O)c2)oc2cc(O)cc(O[C@@H]3O[C@H](CO)[C@@H](O)[C@H](O)[C@H]3O)c12 [Luteolin 5-O-β-D-glucopyranoside, luteolin 5-O-β-D-glucopyranoside] , thanks.
stdout: 52.43

stdin: Same question, O=c1cc(-c2ccc(O)c(O)c2)oc2cc(O[C@@H]3O[C@H](CO)[C@@H](O)[C@H](O)[C@H]3O)cc(O)c12 [Luteolin 7-O-β-D-glucopyranoside, luteolin 7-O-β-D-glucopyranoside] this time
stdout: 58.97
